test: Stability in dog plasma; assay type: in vitro ADME; settings: 37° C., 15 minutes
endpoint name: Percentage of the compound remaining in plasma (%)

CCC(NC(=O)OCOc1ccc([N+](=O)[O-])c2cccnc12)C(=O)OC (stereo not drawn) ... 100.3
COC(=O)[C@H](Cc1ccccc1)NC(=O)OCOc1ccc([N+](=O)[O-])c2cccnc12 ... 96.3
CN1CCN(C(=O)OCOc2ccc([N+](=O)[O-])c3cccnc23)CC1 ... 111.5
CCC(CC)C(=O)OCOc1ccc([N+](=O)[O-])c2cccnc12 ... 75.0
O=C(OCOc1ccc([N+](=O)[O-])c2cccnc12)N1CCOCC1 ... 104.0
O=[N+]([O-])c1ccc(O)c2ncccc12 ... 100.8
CCC(C)C(NC(=O)OCOc1ccc([N+](=O)[O-])c2cccnc12)C(=O)OC (stereo not drawn) ... 99.6
COC(=O)CNC(=O)OCOc1ccc([N+](=O)[O-])c2cccnc12 ... 96.3
C[C@@H]1CN(C(=O)OCOc2ccc([N+](=O)[O-])c3cccnc23)C[C@H](C)O1 ... 96.7
